Listed below: inhibition values for each entry.
- Target: Carboxy-terminal domain RNA polymerase II polypeptide A small phosphatase 1 (Homo sapiens) (UniProt Q9GZU7)
- Sequence (Q9GZU7 76-261 limits assumed): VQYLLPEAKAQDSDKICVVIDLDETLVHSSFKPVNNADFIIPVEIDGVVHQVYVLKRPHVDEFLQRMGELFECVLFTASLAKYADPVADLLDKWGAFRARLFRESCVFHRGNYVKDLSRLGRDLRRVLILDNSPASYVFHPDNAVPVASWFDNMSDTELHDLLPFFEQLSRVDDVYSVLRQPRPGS
- Experiment Notes: Scp-1 phosphatase inhibitors, primary screen, biochemical, colorimetric, uHTS (AID 493091);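 also: plate controls were DMSO wells with enzyme for no effect and wells lacking enzyme for full effect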
- Run Parameters: Recombinant Scp1, phosphopeptide, malachite green phosphate absorbance; at 20 µM; hits give high values
About 3,000 (0.88%) of roughly 340,000 compounds were called active. For the sample, actives were picked, then their nearest neighbours and some compounds at random.
Answer format: numeric, % implied, no suffix.

Can you share its inhibition? I mean this compound: Cc1cc(=O)[nH]c(N/N=C/c2c(C)nn(-c3ccccc3Cl)c2Cl)n1
-253

Can you share its inhibition? I mean this compound: CCc1ccc(C2C(C#N)=C(N)N(N3CCOCC3)C3=C2C(=O)CC(C)(C)C3)s1 (stereo not given)
8.56

Can you share its inhibition? I mean this compound: N#Cc1ccc(C(=O)Nc2cccc3cccnc23)c(F)c1
100

Can you share its inhibition? I mean this compound: C=CCn1c(=S)[nH]c2nc3c(cc2c1=O)COC(C)(C)C3
-8.72

# ---- query compound ----
Can you share its inhibition? I mean this compound: CS(=O)(=O)NCc1ccc(C(=O)NCc2ccccc2)cc1
-6.79

###

- Target: Carboxy-terminal domain RNA polymerase II polypeptide A small phosphatase 1 (Homo sapiens)
- Experiment Notes: Scp-1 phosphatase inhibitors, primary screen, biochemical, colorimetric, uHTS (AID 493091);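 also: plate controls were DMSO wells with enzyme for no effect and wells lacking enzyme for full effect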
- Run Parameters: Recombinant Scp1, phosphopeptide, malachite green phosphate absorbance; at 20 µM; hits give high values
The whole screen tested about 340,000 compounds, of which about 3,000 (0.88%) were called active. This is one part of a sample in which actives are shown more often than they occur.
Listed below: inhibition values for each entry.
Answer format: numeric, % implied, no suffix.

Can you share its inhibition? I mean this compound: CC(=O)NNC(=O)c1csc(Cc2c(Cl)sc3ccc(Cl)cc23)n1
-4.25

Can you share its inhibition? I mean this compound: COc1ccc(NC(=O)CN(C)C(=O)c2cc(-c3ccc(C)o3)nc3ccccc23)cc1
-3.85

Can you share its inhibition? I mean this compound: Cc1nc2ccc(C(=O)N(C)CC3CCCN(CCc4ccc(Cl)cc4)C3)cc2[nH]1 (centres undefined)
-5.73

Further cases:
Can you share its inhibition? I mean this compound: Cc1noc(C)c1NC(=O)Nc1cccc2c1O[C@H](CN(C)C(=O)Nc1ccccc1)[C@@H](C)CN([C@H](C)CO)C2=O
-8.19

###

Listed below: inhibition values for each entry.
- Target: Carboxy-terminal domain RNA polymerase II polypeptide A small phosphatase 1 (Homo sapiens) (UniProt Q9GZU7)
- Experiment Notes: Scp-1 phosphatase inhibitors, primary screen, biochemical, colorimetric, uHTS (AID 493091);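 also: plate controls were DMSO wells with enzyme for no effect and wells lacking enzyme for full effect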
- Run Parameters: Recombinant Scp1, phosphopeptide, malachite green phosphate absorbance; at 20 µM; hits give high values
Screen size: about 340,000 compounds; about 3,000 (0.88%) were called active. The entries come from a sample that favours actives as a whole.
Answer format: numeric, % implied, no suffix.

Examples with answers:
Can you share its inhibition? I mean this molecule: COc1ccc(/C=C/C(=O)OCC(=O)NC2CCCCCC2)cc1OC
53

Can you share its inhibition? I mean this molecule: Cc1nnc(SCc2cccc(Cl)c2)n(N)c1=O
-7.11

Can you share its inhibition? I mean this molecule: CC1(C)CC(CNCCC(c2ccc(F)cc2)c2ccco2)CCO1 (stereo not drawn)
-5.21

Further cases:
Can you share its inhibition? I mean this molecule: CC(=O)c1ccc(NC(=O)CSc2nc3ccccc3c(=O)n2CCCN2CCOCC2)cc1
-7.5

Can you share its inhibition? I mean this molecule: CCOc1cc(C2/C(=C(/O)c3ccc(S(=O)(=O)N4CCCCC4)cc3)C(=O)C(=O)N2CCOC)ccc1O (stereo not drawn)
1.05

Can you share its inhibition? I mean this molecule: COc1ccc(NS(=O)(=O)c2cccc3nsnc23)cc1Cl
-12.1

Can you share its inhibition? I mean this molecule: COCCNC(=S)N1CCN(C)CC1
-7.43

Can you share its inhibition? I mean this molecule: O=C(O)c1ccn(COc2ccc(Br)cc2)n1
-2.51

Can you share its inhibition? I mean this molecule: CC(=O)c1cccc(NC(=O)N2CCCC2C(=O)NCCc2ccccc2)c1 (stereo not drawn)
-7.73

Can you share its inhibition? I mean this molecule: CC(C)OC(=O)CN1CCN(c2ccc(Cl)cc2)CC1
4.48

Can you share its inhibition? I mean this molecule: Cc1ccc(NC(=O)COc2coc(CN3CCc4ccccc4C3)cc2=O)cc1Cl
5.58

Can you share its inhibition? I mean this molecule: COc1ccc(NC2CCCN(C(=O)c3ccncc3)C2)cc1 (stereo not drawn)
3.08

Can you share its inhibition? I mean this molecule: O=C(NCCN1C(=O)S/C(=C\c2cccnc2)C1=O)c1cccc(OC(F)F)c1
-7.82
